- test.target: GRK2 (Homo sapiens, UniProt P25098)
- Sequence (P25098 1-689): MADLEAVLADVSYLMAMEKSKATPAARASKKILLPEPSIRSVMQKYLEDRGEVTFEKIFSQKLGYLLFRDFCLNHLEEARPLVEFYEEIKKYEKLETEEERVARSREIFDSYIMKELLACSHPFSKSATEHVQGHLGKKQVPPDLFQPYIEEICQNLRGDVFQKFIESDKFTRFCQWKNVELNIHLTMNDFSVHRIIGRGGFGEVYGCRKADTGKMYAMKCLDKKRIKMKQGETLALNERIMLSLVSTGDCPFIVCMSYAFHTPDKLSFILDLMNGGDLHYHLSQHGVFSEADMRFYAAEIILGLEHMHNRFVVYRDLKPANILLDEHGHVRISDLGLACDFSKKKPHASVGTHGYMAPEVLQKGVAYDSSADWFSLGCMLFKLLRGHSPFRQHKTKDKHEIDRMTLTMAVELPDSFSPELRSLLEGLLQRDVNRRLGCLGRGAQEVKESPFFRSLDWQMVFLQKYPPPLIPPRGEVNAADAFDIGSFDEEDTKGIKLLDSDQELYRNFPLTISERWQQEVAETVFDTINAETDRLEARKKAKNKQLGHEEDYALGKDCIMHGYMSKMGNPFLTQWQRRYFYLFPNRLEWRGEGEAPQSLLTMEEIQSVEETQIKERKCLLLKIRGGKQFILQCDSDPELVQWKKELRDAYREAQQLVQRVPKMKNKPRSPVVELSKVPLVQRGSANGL
- assay.comment: GRK2 Degradation Assay and Western Blot in PAXF1657 cells
- Type: cell-based
- Design: endogenous in cells; host or cells: PAXF1657
- experimental.conditions: Conc 0.3 uM; read-out: Degradation Assay - 3 point: Degradation (%)
Structures can show the parent of a compound that is named as a salt.
quantity: inhibition at 0.3 µM (%)

C[C@@H](NC(=O)c1cccc(NCc2nnc(-c3ccncn3)n2C)c1)c1ccc(OCCCCN2CCN(c3ccc4c(c3)CN(C3CCC(=O)NC3=O)C4=O)CC2)cc1 (stereo partly drawn) [Compound D175, hydrochloride] | 87.7
C[C@@H](NC(=O)c1cccc(NCc2nnc(-c3ccncn3)n2C)c1)c1ccc(OCCCCCCOCCOCCOCCCC(=O)N2CCN(c3cc4c(cc3F)C(=O)N(C3CCC(=O)NC3=O)C4=O)CC2)cc1 (stereo partly drawn) | 71.9
C[C@@H](NC(=O)c1cccc(NCc2nnc(-c3ccncn3)n2C)c1)c1cccc(OCC(=O)N2CCN(c3ccc4c(c3)CN(C3CCC(=O)NC3=O)C4=O)CC2)c1 (stereo partly drawn) | 33
C[C@H](NC(=O)c1cccc(NCc2nnc(-c3ccncn3)n2C)c1)c1ccc(OCCCN2CCN(c3ccc4c(c3)CN(C3CCC(=O)NC3=O)C4=O)CC2)cc1 (stereo partly drawn) [Compound D118, hydrochloride] | -13.1
C[C@H](NC(=O)c1cccc(NCc2nnc(-c3ccncn3)n2C)c1)c1cccc(OCCCCCCOCCOCC(=O)Nc2cccc3c2CN(C2CCC(=O)NC2=O)C3=O)c1 (stereo partly drawn) | 19.3
Cn1c(CNc2cccc(C(=O)N[C@H]3CCOc4ccc(OCCCCCOCCCOCC(=O)Nc5cccc6c5CN(C5CCC(=O)NC5=O)C6=O)cc43)c2)nnc1-c1ccncn1 (stereo partly drawn) | 61.9
C[C@@H](NC(=O)c1cccc(NCc2nnc(-c3ccncn3)n2C)c1)c1cccc(OCCCCCCOCCOCCOCCCC(=O)N2CCN(c3cc4c(cc3F)C(=O)N(C3CCC(=O)NC3=O)C4=O)CC2)c1 (stereo partly drawn) | 45
Cc1ncsc1-c1ccc(CNC(=O)[C@@H]2C[C@@H](O)CN2C(=O)[C@@H](NC(=O)COCCCOCCCCCOc2cccc([C@@H](C)NC(=O)c3cccc(NCc4nnc(-c5ccncn5)n4C)c3)c2)C(C)(C)C)cc1 | 29.1

(1) C[C@@H](NC(=O)c1cccc(NCc2nnc(-c3ccncn3)n2C)c1)c1cccc(OCCCCCn2cc(CCCCC(=O)Nc3cccc4c3CN(C3CCC(=O)NC3=O)C4=O)nn2)c1 (stereo partly drawn)
(2) Cn1c(CNc2cccc(C(=O)NCc3ccc(OCCCCCOCCCOCC(=O)Nc4cccc5c4CN(C4CCC(=O)NC4=O)C5=O)cc3)c2)nnc1-c1ccncn1 (stereo not drawn)
(3) C[C@@H](NC(=O)c1cccc(NCc2nnc(-c3ccncn3)n2C)c1)c1cccc(OCCCCCCOCC(=O)N2CCN(c3ccc4c(c3)CN(C3CCC(=O)NC3=O)C4=O)CC2)c1 (stereo partly drawn)
Rank descending by inhibition at 0.3 µM. Please list each label once, in the requested order.
3, 2, 1
(3: 87.4%, 2: 33.3%, 1: 17.1%)

(A) C[C@@H](NC(=O)c1cccc(NCc2nnc(-c3ccncn3)n2C)c1)c1ccc(OCCCCCCOCCOCCOCCCCCC(=O)Nc2cccc3c2CN(C2CCC(=O)NC2=O)C3=O)cc1 (stereo partly drawn)
(B) C[C@@H](NC(=O)c1cccc(NCc2nnc(-c3ccncn3)n2C)c1)c1cccc(C(=O)N2CC(CN3CCN(c4ccc5c(c4)CN(C4CCC(=O)NC4=O)C5=O)CC3)C2)c1 (stereo partly drawn) [Compound D121, hydrochloride]
Input pair: A , B . Output: entry with lower inhibition at 0.3 µM. Write down the label attached to your selection.
B
(B: 7.97%, A: 73.8%)

(I) Cc1ncsc1-c1ccc(CNC(=O)[C@@H]2C[C@@H](O)CN2C(=O)[C@@H](NC(=O)CCCCCOCCOCCOCCCCCCOc2cccc([C@H](C)NC(=O)c3cccc(NCc4nnc(-c5ccncn5)n4C)c3)c2)C(C)(C)C)cc1
(II) C[C@@H](NC(=O)c1cccc(NCc2nnc(-c3ccncn3)n2C)c1)c1cccc(OCCCCCCOCCOCCOCCC(=O)N2CCN(c3cc4c(cc3F)C(=O)N(C3CCC(=O)NC3=O)C4=O)CC2)c1 (stereo partly drawn)
Quick check, higher inhibition at 0.3 µM between I and II ? Your choice should be expressed through its label.
II
(II: 78.7%, I: 10%)

----------
- test.target: GRK2 (Homo sapiens)
- assay.comment: GRK2 Degradation Assay and Western Blot in PAXF1657 cells
- Type: cell-based
- Parameters: endogenous in cells; host or cells: PAXF1657
- experimental.conditions: Conc 1 uM; read-out: Degradation Assay - 3 point: Degradation (%)
quantity: inhibition at 1 µM (%)

C[C@@H](NC(=O)c1cccc(NCc2nnc(-c3ccncn3)n2C)c1)c1cccc(OCCCCCCOCCOCCNc2cccc3c2CN(C2CCC(=O)NC2=O)C3=O)c1 (stereo partly drawn) [Compound D143] | 82

(I) C[C@@H](NC(=O)c1cccc(NCc2nnc(-c3ccncn3)n2C)c1)c1ccc(OCCCN2CCN(c3ccc4c(c3)CN(C3CCC(=O)NC3=O)C4=O)CC2)cc1 (stereo partly drawn) [Compound D173]
(II) C[C@@H](NC(=O)c1cccc(NCc2nnc(-c3ccncn3)n2C)c1)c1cccc(OCCCCCCOCCOCCOCCCC(=O)N2CCN(c3ccc4c(c3)CN(C3CCC(=O)NC3=O)C4=O)CC2)c1 (stereo partly drawn) [Compound D179]
Which of the two gives a bigger number for inhibition at 1 µM: I or II ? Selection: enter the item's label.
II

----------
- test.target: GRK2 (Homo sapiens, UniProt P25098)
- Sequence (P25098 1-689): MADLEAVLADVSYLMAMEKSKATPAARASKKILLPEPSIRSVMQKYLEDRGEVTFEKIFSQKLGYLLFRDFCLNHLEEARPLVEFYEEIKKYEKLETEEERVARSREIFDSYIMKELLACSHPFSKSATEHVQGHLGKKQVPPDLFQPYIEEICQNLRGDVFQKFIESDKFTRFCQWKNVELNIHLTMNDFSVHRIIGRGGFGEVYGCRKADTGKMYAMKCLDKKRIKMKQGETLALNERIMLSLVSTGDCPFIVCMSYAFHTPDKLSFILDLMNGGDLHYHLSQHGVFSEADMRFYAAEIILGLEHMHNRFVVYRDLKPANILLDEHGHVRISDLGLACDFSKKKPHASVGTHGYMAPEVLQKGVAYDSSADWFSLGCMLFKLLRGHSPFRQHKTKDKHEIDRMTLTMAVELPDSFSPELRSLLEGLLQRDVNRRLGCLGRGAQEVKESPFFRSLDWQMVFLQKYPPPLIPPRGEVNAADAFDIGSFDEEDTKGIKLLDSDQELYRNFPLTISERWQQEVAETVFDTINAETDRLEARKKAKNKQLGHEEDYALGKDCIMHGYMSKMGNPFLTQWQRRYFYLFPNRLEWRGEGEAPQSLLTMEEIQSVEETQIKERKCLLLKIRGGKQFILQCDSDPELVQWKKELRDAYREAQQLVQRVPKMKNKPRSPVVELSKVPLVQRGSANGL
- assay.comment: GRK2 Degradation Assay and Western Blot in PAXF1657 cells
- Type: cell-based
- Parameters: endogenous in cells; host or cells: PAXF1657
- experimental.conditions: Conc 1 uM; read-out: Degradation Assay - 3 point: Degradation (%)
Structures can show the parent of a compound that is named as a salt.
quantity: inhibition at 1 µM (%)

C[C@@H](NC(=O)c1cccc(NCc2nnc(-c3ccncn3)n2C)c1)c1cccc(OCCCCCOCCCOCCOc2ccc3c(c2)CN(C2CCC(=O)NC2=O)C3=O)c1 (stereo partly drawn) | 87
C[C@@H](NC(=O)c1cccc(NCc2nnc(-c3ccncn3)n2C)c1)c1cccc(C(=O)N2CCC(CN3CCN(c4ccc5c(c4)CN(C4CCC(=O)NC4=O)C5=O)CC3)CC2)c1 (stereo partly drawn) [Compound D122, hydrochloride] | 90.6
C[C@@H](NC(=O)c1cccc(NCc2nnc(-c3ccncn3)n2C)c1)c1cccc(OCCCCCCOCCOCCNc2ccc3c(c2)CN(C2CCC(=O)NC2=O)C3=O)c1 (stereo partly drawn) | 88

All figures here come from patent US20240174637A1.
